Known Percent Control of a selection of molecules
test system: VRK2; conditions: Compound Concentration (nM):1000;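 note: KINOMEscan scanMAX binding as percent activity remaining versus control; lower means stronger binding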
Numeric only. Scale: %

A selection of reference data follows.
> print(dat)
                                   molecule  subject.of.test  recorded.result
1  COc1cc(C)c(N(C)C(=O)CN(C)C)cc1Nc1nc(Nc2cccc(F)c2C(N)=O)c2cc[nH]c2n1 [GSK2219385]             VRK2               62
2  O=C(Nc1n[nH]c2nc(-c3ccc(O)cc3)c(Br)cc12)C1CC1 [SB-725317]             VRK2              100
3  CC(C)COC(=O)c1ccc2c(c1)/C(=C/Nc1ccc(S(N)(=O)=O)cc1)C(=O)N2 [GW416981X]             VRK2              100
4  COc1cc(/C=N/Nc2ncnc3[nH]ncc23)ccc1O [GW578748X]             VRK2              100
5  COc1ccc2[nH]c3c4[nH]c5ccc(OC)cc5c4c4c(c3c2c1)C(=O)NC4=O [GW296115X]             VRK2               98

Entry under review: NS(=O)(=O)c1ccc(N/N=C2\C(=O)Nc3ccc(-c4cnco4)cc32)cc1 [GW276655] . Reported Percent Control? 89

Entry under review: Cl.O=C(Nc1ccc(Oc2ccc3[nH]c(NC(=O)c4ccco4)nc3c2)cc1)Nc1cc(C(F)(F)F)ccc1F [GW683134A] . Reported Percent Control? 100

Entry under review: COc1cc(N2CCN(C(C)C)CC2)ccc1Nc1nc(Nc2ccc(F)cc2C(=O)NC[C@@H](O)CO)c2cc[nH]c2n1 [GSK1392956A] . Reported Percent Control? 68

* * *

system: PCTK3; construct: gene CDK18; details: Compound Concentration (nM):1000
Known Percent Control of a selection of compounds
Numeric only. Scale: %

A selection of reference data follows.
> print(dat)
                                   compound  subject.of.test  recorded.result
1  CCn1c(-c2nonc2N)nc2c(C#CC(C)(C)O)nc(OCCNC)cc21.Cl            PCTK3              100
2  O=C(Nc1n[nH]c2nc(-c3ccc(O)cc3)c(Br)cc12)C1CC1            PCTK3               77
3  CN(C)CCNC(=O)Nc1ccc(N(C)c2ccnc(Nc3ccc(CS(C)(=O)=O)cc3)n2)cc1.Cl [GW830900A]            PCTK3              100
4  COc1ccccc1-c1cc(/C=C2\C(=O)Nc3ncc(Br)cc32)cc(Br)c1O [GW442130X]            PCTK3              100
5  Cl.O=C(Nc1ccc(Oc2ccc3[nH]c(NC(=O)c4ccccc4)nc3c2)cc1)Nc1cc(C(F)(F)F)ccc1F [GW709042A]            PCTK3               96
6  CCc1ccc(Oc2nccc(-c3c(-c4ccc(F)cc4)ncn3C3CCNCC3)n2)cc1            PCTK3               94

Enter reported Percent Control observed with PCTK3 for COc1cc2ncnc(Nc3ccc4c(cnn4Cc4ccccc4)c3)c2cc1OC.Cl [GW282449A] 100

Enter reported Percent Control observed with PCTK3 for NS(=O)(=O)c1ccc(Nc2ncc(-c3ccccc3)o2)cc1 [GW572399X] 100
